- TESTED_TARGET: human norepinephrine transporter (hNET) (Homo sapiens)
- Construct: expressed in transfected cells; host or cells: HEK-293, stably transfected
- Sequence (P23975 whole entry): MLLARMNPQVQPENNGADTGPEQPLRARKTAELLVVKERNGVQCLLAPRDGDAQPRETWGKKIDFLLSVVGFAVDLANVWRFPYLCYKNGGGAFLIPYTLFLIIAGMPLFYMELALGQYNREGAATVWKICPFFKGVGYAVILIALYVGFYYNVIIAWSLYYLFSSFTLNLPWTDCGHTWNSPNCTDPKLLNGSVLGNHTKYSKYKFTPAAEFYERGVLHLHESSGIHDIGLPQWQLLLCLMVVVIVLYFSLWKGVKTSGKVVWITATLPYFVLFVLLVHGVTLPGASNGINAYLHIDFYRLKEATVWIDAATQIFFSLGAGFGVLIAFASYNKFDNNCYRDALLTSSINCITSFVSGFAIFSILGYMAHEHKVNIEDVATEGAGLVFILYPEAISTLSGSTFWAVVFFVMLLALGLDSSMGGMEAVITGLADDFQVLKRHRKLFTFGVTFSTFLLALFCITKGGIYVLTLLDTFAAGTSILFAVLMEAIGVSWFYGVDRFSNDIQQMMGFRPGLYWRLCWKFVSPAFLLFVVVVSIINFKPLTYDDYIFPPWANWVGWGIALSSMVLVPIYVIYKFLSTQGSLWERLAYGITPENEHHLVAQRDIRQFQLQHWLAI
- MEASUREMENT_NOTES: Radioligand binding to cloned hNET, [3H]nisoxetine, HEK-293 cell membranes
- EXPERIMENTAL_PARAMETERS: Geometric Mean ± SEM; HCl salts; read-out: Equilibrium Dissociation Constant (KD) for Transporter Binding, hNET (N)
READOUT_NAME: log10 of Kd (log10 of the value in µM)
Hi team, quick reminder: these entries are log10 of Kd (µM).

Task: Look up log10 of Kd with human norepinephrine transporter (hNET) (Homo sapiens) for this compound: CNC[C@@H](c1ccc2ccccc2c1)[C@@H](F)c1ccccc1
Output: -0.77

Task: Kindly state the measured log10 of Kd obtained for CNC[C@H](c1ccc2ccccc2c1)[C@@H](Cl)c1ccccc1 with human norepinephrine transporter (hNET) (Homo sapiens).
Output: -1.98

Task: Query log10 of Kd on human norepinephrine transporter (hNET) (Homo sapiens) for CNC[C@@H](c1ccc2ccccc2c1)[C@H](Cl)c1ccccc1
Output: -0.15

Task: API: value(readout=log10 of Kd, system=human norepinephrine transporter (hNET) (Homo sapiens)) for record c1ccc([C@H]2OCNC[C@@H]2c2ccc3ccccc3c2)cc1
Output: -1.00

Task: Enter reported log10 of Kd observed with human norepinephrine transporter (hNET) (Homo sapiens) for CNC[C@H](c1ccc2ccccc2c1)[C@H](OCCCCCO[C@H](c1ccccc1)[C@H](CNC)c1ccc2ccccc2c1)c1ccccc1
Output: -0.80

Task: Please provide the recorded log10 of Kd for C[N+]1(C)CN[C@H](c2ccccc2)[C@@H](c2ccc3ccccc3c2)C1.[Cl-] , tested on human norepinephrine transporter (hNET) (Homo sapiens).
Output: -1.00

Task: Give log10 of Kd (human norepinephrine transporter (hNET) (Homo sapiens)) of the following compound: CNC[C@H](c1ccc2ccccc2c1)[C@H](Cl)c1ccccc1
Output: -2.43

Task: Query log10 of Kd on human norepinephrine transporter (hNET) (Homo sapiens) for CNC[C@@H](c1ccc2ccccc2c1)[C@@H](N)c1ccccc1 (racemic) [MCJ001-NH2-(±)-RR]
Output: -2.60

----------
- Tested on: hSERT, hNET, hDAT
- MEASUREMENT_NOTES: Human transporter binding: rank order and range of potency over the three transporters
- EXPERIMENTAL_PARAMETERS: ratio of KD over hSERT, hNET, hDAT
Class rule met: Potency Range (difference between most potent and least potent binding) at least 5 fold. Class rule not met: Potency Range (difference between most potent and least potent binding) below 5 fold.

Task: Form field: Potency Range (difference between most potent and least potent binding) at least 5 fold? Entry: CNC[C@H](c1ccc2ccccc2c1)[C@@H](F)c1ccccc1
Output: rule met

Task: Could you verify whether the entry CNC[C@@H](c1ccc2ccccc2c1)[C@@H](F)c1ccccc1 shows Potency Range (difference between most potent and least potent binding) of no less than 5 fold?
Output: rule met

Task: Is Potency Range (difference between most potent and least potent binding) for CNC[C@H](c1ccc2ccccc2c1)[C@@H](N=[N+]=[N-])c1ccccc1 at or above 5 fold?
Output: rule not met

Task: Does Potency Range (difference between most potent and least potent binding) meet or surpass 5 fold for CN1CO[C@@H](c2ccccc2)[C@H](c2ccc3ccccc3c2)C1 ?
Output: rule not met

Task: Check this molecule for Potency Range (difference between most potent and least potent binding) at or above 5 fold: CNC[C@H](c1ccc2ccccc2c1)[C@H](OC(C)=O)c1ccccc1
Output: rule not met

Task: Given the entry CNC[C@H](c1ccc2ccccc2c1)[C@H](Cl)c1ccccc1 , answer whether its Potency Range (difference between most potent and least potent binding) meets or surpasses 5 fold.
Output: rule met

Task: Is Potency Range (difference between most potent and least potent binding) at least 5 fold? Consider CNC[C@@H](c1ccc2ccccc2c1)[C@H](N=[N+]=[N-])c1ccccc1
Output: rule not met

Task: Is it the case that CNC[C@H](c1ccc2ccccc2c1)[C@H](OCCCCCO[C@H](c1ccccc1)[C@H](CNC)c1ccc2ccccc2c1)c1ccccc1 has Potency Range (difference between most potent and least potent binding) reaching or exceeding 5 fold?
Output: rule not met

Task: Given CNC[C@H](c1ccc2ccccc2c1)[C@H](OC)c1ccccc1 , state whether its Potency Range (difference between most potent and least potent binding) is at least 5 fold.
Output: rule met

Task: Does Potency Range (difference between most potent and least potent binding) meet or surpass 5 fold for CNC[C@H](c1ccc2ccccc2c1)[C@H](OCCCCO[C@H](c1ccccc1)[C@H](CNC)c1ccc2ccccc2c1)c1ccccc1 ?
Output: rule not met

Task: Hi, just wondering whether CNC[C@@H](c1ccc2ccccc2c1)[C@H](Cl)c1ccccc1 shows Potency Range (difference between most potent and least potent binding) of 5 fold or higher.
Output: rule met

Task: Could you please find out whether CNC[C@@H](c1ccc2ccccc2c1)[C@@H](Cl)c1ccccc1 has Potency Range (difference between most potent and least potent binding) that meets 5 fold or exceeds it?
Output: rule met

Task: Decide: is the reported value of Potency Range (difference between most potent and least potent binding) for CNC[C@@H](c1ccc2ccccc2c1)[C@H](N)c1ccccc1 equal to or greater than 5 fold?
Output: rule not met

Task: Form field: Potency Range (difference between most potent and least potent binding) at least 5 fold? Entry: c1ccc([C@H]2OCNC[C@@H]2c2ccc3ccccc3c2)cc1
Output: rule met

Task: Reported Potency Range (difference between most potent and least potent binding) at or above 5 fold? CNC[C@@H](c1ccc2ccccc2c1)[C@@H](N)c1ccccc1 (racemic) [MCJ001-NH2-(±)-RR]
Output: rule met

Task: Check the entry CN1CO[C@H](c2ccccc2)[C@@H](c2ccc3ccccc3c2)C1 : does Potency Range (difference between most potent and least potent binding) equal or exceed 5 fold?
Output: rule met

Task: Does the reported Potency Range (difference between most potent and least potent binding) for CN1CN[C@H](c2ccccc2)[C@@H](c2ccc3ccccc3c2)C1 fall at or above the 5 fold mark?
Output: rule met

Task: Tell me whether Potency Range (difference between most potent and least potent binding) is at least 5 fold here: CNC[C@H](c1ccc2ccccc2c1)[C@@H](Cl)c1ccccc1
Output: rule met

Task: Reported Potency Range (difference between most potent and least potent binding) at or above 5 fold? CN(C)C[C@H](c1ccc2ccccc2c1)[C@H](N)c1ccccc1
Output: rule met

Task: For this molecule, is measured Potency Range (difference between most potent and least potent binding) 5 fold or higher? CNC[C@@H](c1ccc2ccccc2c1)[C@H](F)c1ccccc1
Output: rule met

Task: Record C[N+]1(C)CN[C@H](c2ccccc2)[C@@H](c2ccc3ccccc3c2)C1.[Cl-] ; criterion: Potency Range (difference between most potent and least potent binding) no lower than 5 fold. Met?
Output: rule met

Task: // inclusive: Potency Range (difference between most potent and least potent binding) at least 5 fold? input: CNCC(c1ccc2ccccc2c1)C(OC)c1ccccc1 (racemic) [MCJ001-OMe-(±)-SR]
Output: rule not met

Task: Tell me whether Potency Range (difference between most potent and least potent binding) is at least 5 fold here: CNC[C@H](c1ccc2ccccc2c1)[C@H](F)c1ccccc1
Output: rule met

Task: Evaluate CNC[C@H](c1ccc2ccccc2c1)[C@H](O)c1ccccc1 [PRC200-SS, reference compound] : Potency Range (difference between most potent and least potent binding) at minimum 5 fold?
Output: rule met

Task: Entry CNCC(c1ccc2ccccc2c1)C(F)c1ccccc1 (racemic) [MCJ001-F-(±)-RR] : is its Potency Range (difference between most potent and least potent binding) no less than 5 fold?
Output: rule met

----------
- TESTED_TARGET: human dopamine transporter (hDAT) (Homo sapiens)
- Construct: expressed in transfected cells; host or cells: HEK-293, stably transfected
- Sequence (Q01959 whole entry): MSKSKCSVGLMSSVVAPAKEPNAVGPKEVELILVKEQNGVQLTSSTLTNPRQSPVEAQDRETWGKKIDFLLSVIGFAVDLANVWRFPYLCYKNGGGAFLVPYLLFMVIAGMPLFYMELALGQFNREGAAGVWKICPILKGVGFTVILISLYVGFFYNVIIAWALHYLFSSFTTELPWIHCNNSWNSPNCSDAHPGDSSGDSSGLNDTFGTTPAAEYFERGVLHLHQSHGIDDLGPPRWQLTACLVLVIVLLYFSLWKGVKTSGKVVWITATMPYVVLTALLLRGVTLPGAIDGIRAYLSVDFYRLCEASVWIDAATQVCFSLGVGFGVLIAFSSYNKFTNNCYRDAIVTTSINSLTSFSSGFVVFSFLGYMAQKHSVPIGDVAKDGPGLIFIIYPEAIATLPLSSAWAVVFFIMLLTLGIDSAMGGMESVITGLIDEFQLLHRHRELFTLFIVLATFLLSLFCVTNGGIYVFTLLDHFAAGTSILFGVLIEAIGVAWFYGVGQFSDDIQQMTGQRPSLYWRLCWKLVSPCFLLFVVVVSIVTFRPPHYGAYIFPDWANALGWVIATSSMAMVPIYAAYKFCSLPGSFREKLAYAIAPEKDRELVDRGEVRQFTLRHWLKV
- MEASUREMENT_NOTES: Radioligand binding to cloned hDAT, [3H]WIN35428, HEK-293 cell membranes
READOUT_NAME: pKd
Lab note: report pKd as minus log10 of the concentration in molar units, number only.

Task: Look up pKd: CN1CO[C@H](c2ccccc2)[C@@H](c2ccc3ccccc3c2)C1
Output: 7.28

Task: Returns the measured pKd for the input compound. Input: CN1CN[C@H](c2ccccc2)[C@@H](c2ccc3ccccc3c2)C1
Output: 8.11

Task: So what's the measured pKd for this one? CNCC(c1ccc2ccccc2c1)C(F)c1ccccc1 (racemic) [MCJ001-F-(±)-RR]
Output: 6.85

Task: Suppose we examine the compound CNC[C@H](c1ccc2ccccc2c1)[C@@H](F)c1ccccc1 ; what pKd value has been reported?
Output: 7.72

Task: Fill blank: measured pKd of the compound CNC[C@H](c1ccc2ccccc2c1)[C@@H](Cl)c1ccccc1 is ____.
Output: 8.10

Task: Looking for the measured pKd of CNC[C@@H](c1ccc2ccccc2c1)[C@@H](N)c1ccccc1 (racemic) [MCJ001-NH2-(±)-RR] , can you help?
Output: 7.55

Task: Value lookup for pKd; key = CNC[C@H](c1ccc2ccccc2c1)[C@H](F)c1ccccc1
Output: 7.63

Task: Quick one: pKd for CNC[C@H](c1ccc2ccccc2c1)[C@H](Cl)c1ccccc1 ?
Output: 7.11

Task: I would be grateful if you could share the reported pKd for CN(C)C[C@H](c1ccc2ccccc2c1)[C@H](N)c1ccccc1 .
Output: 8.38

Task: Can you share its pKd? I mean this compound: CNC[C@H](c1ccc2ccccc2c1)[C@H](OC)c1ccccc1
Output: 7.39

Task: Give its pKd value. Item: CNC[C@@H](c1ccc2ccccc2c1)[C@H](F)c1ccccc1
Output: 7.44

Task: Given the entry C[N+]1(C)CN[C@H](c2ccccc2)[C@@H](c2ccc3ccccc3c2)C1.[Cl-] , report its measured pKd.
Output: 7.74

Task: For CNC[C@@H](c1ccc2ccccc2c1)[C@@H](F)c1ccccc1 , what is its reported pKd?
Output: 6.82

Taken from patent US8440724B2.
